Measured IC50, listed per entry for reference.
target: CDK2 (UniProt P24941)

{"columns": ["smiles entry", "IC50 / nM"],
 "data": [
  ["CC(C)c1cnn2c(Nc3ccc(S(=O)(=O)N(C)CCO)cc3)cc(OCCN(C)C)nc12", 240],
  ["CCNC(=O)N[C@H]1CC[C@H](Nc2cc(Nc3ccc(S(=O)(=O)N(C)C)cc3)n3ncc(C(C)C)c3n2)CC1", 305],
  ["CC(C)c1cnn2c(Nc3ccc(S(=O)(=O)N4CCCC4)cc3)cc(Cl)nc12", 270],
  ["N[C@H]1CC[C@H](Oc2cc(Nc3ccc(S(=O)(=O)c4ccccc4)cc3)n3ncc(Cl)c3n2)CC1", 45]
]}

Hello, the source for this data is the Kinase Knowledgebase extract (Sharma et al. 2016), in case you need it.
